Can you tell me pKd for the items I'm about to list?
B1: scFv; the commonest letter at each place (parent)
chain 1: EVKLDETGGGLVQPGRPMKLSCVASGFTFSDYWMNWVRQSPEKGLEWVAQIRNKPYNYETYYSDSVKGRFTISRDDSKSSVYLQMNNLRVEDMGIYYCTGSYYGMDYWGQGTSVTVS
chain 2: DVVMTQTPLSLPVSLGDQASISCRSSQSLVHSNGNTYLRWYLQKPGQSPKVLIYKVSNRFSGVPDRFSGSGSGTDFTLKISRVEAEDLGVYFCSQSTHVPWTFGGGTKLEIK

variants of: B1; experiment: Kd (Tite-Seq); settings: with fluorescein; format: scFv 4-4-20, heavy + light
pKd: −log10 of the molar value.

Here are 2 variants together with their reported answers.
variant-descriptor	reported
chain 1 M105H G109T	≤ 5.00
chain 1 G100E G104I	≤ 5.00

For each of the variants below, state pKd.
1. chain 1 Y103I W108S
2. chain 1 Y102V Y103G Y107F
3. chain 1 Y103I D106L

output:
≤ 5.00
5.20
≤ 5.00
